tgt: Sigma non-opioid intracellular receptor 1 (Rattus norvegicus, UniProt Q9R0C9)
Sequence (Q9R0C9 whole entry): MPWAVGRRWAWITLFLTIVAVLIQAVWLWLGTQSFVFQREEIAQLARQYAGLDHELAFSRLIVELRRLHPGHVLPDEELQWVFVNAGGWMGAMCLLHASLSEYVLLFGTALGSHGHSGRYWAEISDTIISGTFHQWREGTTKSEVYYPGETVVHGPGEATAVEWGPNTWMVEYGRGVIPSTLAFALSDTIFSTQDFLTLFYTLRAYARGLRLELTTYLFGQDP
assay name: Displacement of (+)-[3H]pentazocine from rat brain sigma1 receptor by competitive binding assay
Collected Ki values appear next to each entry.

{"columns": ["molecular string", "Ki"],
 "data": [
  ["COc1ccc(CN2CCC3(CC2)OCc2ccccc23)cc1", "1.7 nM"],
  ["FCCOc1ccc(CN2CCC3(CC2)OCc2ccccc23)cc1", "0.79 nM"],
  ["Fc1ccc(CN2CCC3(CC2)OCc2ccccc23)cc1", "0.58 nM"],
  ["FCCOCCOCCOc1ccc(CN2CCC3(CC2)OCc2ccccc23)cc1", "37.5 nM"],
  ["Ic1ccc(CN2CCC3(CC2)OCc2ccccc23)cc1", "2.75 nM"]
]}

**Query** I would be grateful if you could share the reported Ki for FCCOc1ccc(CN2CCC3(CC2)OCc2ccccc23)cn1 .
**Result** 2.3 nM

**Query** Another compound: FCCOCCOc1ccc(CN2CCC3(CC2)OCc2ccccc23)cc1
**Result** 52.9 nM

---

tgt: 3-beta-hydroxysteroid-Delta(8),Delta(7)-isomerase (Homo sapiens, UniProt Q15125)
Sequence (Q15125 whole entry): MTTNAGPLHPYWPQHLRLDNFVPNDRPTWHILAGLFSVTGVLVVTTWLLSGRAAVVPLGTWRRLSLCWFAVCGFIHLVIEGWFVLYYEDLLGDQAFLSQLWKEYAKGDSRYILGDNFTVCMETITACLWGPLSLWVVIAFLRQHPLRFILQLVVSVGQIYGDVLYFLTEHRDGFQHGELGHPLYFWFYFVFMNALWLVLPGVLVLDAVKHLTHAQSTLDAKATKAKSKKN
assay name: Binding affinity to EBP (unknown origin)
readout label: pKi
Scale explanation: pKi corresponds to minus log10 of a concentration expressed in moles per litre.

**Query** Given the entry COc1ccc(CCN2CCN(CCCc3ccccc3)CC2)cc1OC [[11C]SA4503] , report its measured pKi.
**Result** 8.76

---

assay name: Displacement of [3H]-1,3-di-o-tolylguanidine from rat liver sigma2 receptor by competitive binding assay
Examples of molecules with documented pKi follow.
Please treat pKi as minus the base-10 logarithm of the molar concentration.

The following molecules have reported results that may help.
{"columns": ["molecular string", "recorded result"],
 "data": [
  ["FCCOc1ccc(CN2CCC3(CC2)OCc2ccccc23)cc1", 6.56],
  ["COc1ccc(CN2CCC3(CC2)OCc2ccccc23)cc1", 6.56]
]}

Let us move to another entry and its pKi.
**Query** # lookup: pKi of Ic1ccc(CN2CCC3(CC2)OCc2ccccc23)cc1
**Result** 6.47

---

assay name: Ratio of drug uptake from […] mouse brain to blood after 120 mins
Format: ADME, tissue-based
condition label: brain and blood
readout label: Kp at 2 h

**Query** Entry [18F]CCC1OC2(CCN(Cc3ccccc3)CC2)c2ccccc21 (stereo unspecified) : reported Kp at 2 h = ?
**Result** 18.8

---

tgt: Vesicular acetylcholine transporter (Rattus norvegicus)
Sequence (Q62666 whole entry): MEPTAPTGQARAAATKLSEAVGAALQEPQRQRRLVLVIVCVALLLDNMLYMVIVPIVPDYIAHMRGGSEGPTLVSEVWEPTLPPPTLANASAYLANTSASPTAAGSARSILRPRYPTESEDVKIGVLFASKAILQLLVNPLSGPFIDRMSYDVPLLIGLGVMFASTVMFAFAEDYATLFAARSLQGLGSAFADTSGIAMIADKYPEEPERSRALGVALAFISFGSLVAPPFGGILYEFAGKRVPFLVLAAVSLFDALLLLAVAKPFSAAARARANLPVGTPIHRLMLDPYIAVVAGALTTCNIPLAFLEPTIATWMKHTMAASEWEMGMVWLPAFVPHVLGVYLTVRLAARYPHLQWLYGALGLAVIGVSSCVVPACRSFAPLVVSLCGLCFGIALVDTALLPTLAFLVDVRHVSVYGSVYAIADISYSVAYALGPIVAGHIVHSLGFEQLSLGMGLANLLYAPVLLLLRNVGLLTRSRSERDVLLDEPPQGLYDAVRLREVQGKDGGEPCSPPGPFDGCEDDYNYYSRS
assay name: Displacement of (-)-[3H]-vesamicol from rat VAChT transfected in rat PC12 cells after 120 mins by competitive binding assay
Assay type: cell-based, PC-12
readout label: Ki

**Query** Data request, read-out Ki, for FCCOc1ccc(CN2CCC3(CC2)OCc2ccccc23)cc1
**Result** 631 nM

---

tgt: Sigma non-opioid intracellular receptor 1 (Homo sapiens)
Sequence (Q99720 whole entry): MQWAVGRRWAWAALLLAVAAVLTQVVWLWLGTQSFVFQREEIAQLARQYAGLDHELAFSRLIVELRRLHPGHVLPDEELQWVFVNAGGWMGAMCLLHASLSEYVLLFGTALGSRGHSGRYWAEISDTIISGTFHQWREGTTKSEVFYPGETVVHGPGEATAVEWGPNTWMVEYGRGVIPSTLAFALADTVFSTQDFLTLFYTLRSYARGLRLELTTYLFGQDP
assay name: Binding affinity to sigma1 receptor (unknown origin)
readout label: pKi
# pKi: negative log10 of molar concentration; output just the value

**Query** Entry Ic1ccc(CN2CCC3(CC2)OCc2ccccc23)cc1 : reported pKi = ?
**Result** 8.56

---

assay name: Metabolic stability in ICR mouse liver at 18.5 MBq, iv after 30 mins by HPLC analysis
Format: ADME, organism-based
condition label: read-out: Stability
// reported remaining at 0.5 h per item
State the answer as a number, implicitly in %.

{"columns": ["molecular string", "remaining at 0.5 h, %"],
 "data": [
  ["OCc1ccccc1C1(O)CCN(Cc2ccc(OCC[18F])cc2)CC1", 26.9]
]}

**Query** Quick check: remaining at 0.5 h of [18F]CCOc1ccc(CN2CCC3(CC2)OCc2ccccc23)cc1 ?
**Result** 40.3
